- protocol notes: Selectivity index, ratio of IC50 for cytotoxicity against human HDF cells to IC50 for anticancer activity against human SK-BR-3 cells
- Format: toxicity, cell-based
- measurement parameters: HDF cells versus SK-BR-3 cells, read-out: Ratio IC50
Starred links: 1 amine or outer side, 2 acyl side, 3 side chain; linkers in the order of their positions; H or OH if unused. Positions of bridges follow the written chain, without caps; N, C: chain ends. Non-standard residues stand in square brackets, D forms with d. Residues, ends and D or L forms follow the SMILES beside them. Chains are numbered I, II in the order given. Actinocin(9to1) = Cc1c2oc3c(C)ccc(C(=O)[*:1])c3nc-2c(C(=O)[*:2])c(N)c1=O; NMeV = CN[C@H](C(=O)O)C(C)C; Sar = CNCC(=O)O
List of selectivity ratio values.
readout type: selectivity ratio

{"columns": ["molecule", "recorded measurement"],
 "data": [
  ["CO[C@H]1/C=C\\C=C(/C)C(=O)NC2=CC(=O)C(NCc3cn([C@@H]4O[C@H](COCc5ccccc5)[C@@H](OCc5ccccc5)[C@H](OCc5ccccc5)[C@H]4NC(C)=O)nn3)=C(C[C@@H](C)C[C@H](OC)[C@H](O)[C@@H](C)/C=C(\\C)[C@@H]1OC(N)=O)C2=O", 1.96],
  ["Cc1c2oc3c(C)ccc(C(=O)N[C@@H]4C(=O)N[C@H](C(C)C)C(=O)N5CCC[C@H]5C(=O)N(C)CC(=O)N(C)[C@@H](C(C)C)C(=O)O[C@@H]4C)c3nc-2c(C(=O)N[C@@H]2C(=O)N[C@H](C(C)C)C(=O)N3CCC[C@H]3C(=O)N(C)CC(=O)N(C)[C@@H](C(C)C)C(=O)O[C@@H]2C)c(N)c1=O [DACTINOMYCIN] (I: T[dV]P[Sar][NMeV] / II: T[dV]P[Sar][NMeV]; ester I:1-I:C, II:1-II:C; linker I:N-II:N via Actinocin(9to1))", 2.4],
  ["CO[C@H]1/C=C\\C=C(/C)C(=O)NC2=CC(=O)C(NCc3cn(Cc4ccsc4Br)nn3)=C(C[C@@H](C)C[C@H](OC)[C@H](O)[C@@H](C)/C=C(\\C)[C@@H]1OC(N)=O)C2=O", 1.65],
  ["CO[C@H]1/C=C\\C=C(/C)C(=O)NC2=CC(=O)C(NCc3c[nH]nn3)=C(C[C@@H](C)C[C@H](OC)[C@H](O)[C@@H](C)/C=C(\\C)[C@@H]1OC(N)=O)C2=O", 2.42],
  ["CO[C@H]1/C=C\\C=C(/C)C(=O)NC2=CC(=O)C(NCc3cn(Cc4ccc(F)cc4)nn3)=C(C[C@@H](C)C[C@H](OC)[C@H](O)[C@@H](C)/C=C(\\C)[C@@H]1OC(N)=O)C2=O", 1.09],
  ["CO[C@H]1/C=C\\C=C(/C)C(=O)NC2=CC(=O)C(NCc3cn([C@]4(C#N)O[C@H](COC(C)=O)[C@H](OC(C)=O)[C@H](OC(C)=O)[C@H]4OC(C)=O)nn3)=C(C[C@@H](C)C[C@H](OC)[C@H](O)[C@@H](C)/C=C(\\C)[C@@H]1OC(N)=O)C2=O", 1.37]
]}
